B1: LINE1-full (parent)
chain: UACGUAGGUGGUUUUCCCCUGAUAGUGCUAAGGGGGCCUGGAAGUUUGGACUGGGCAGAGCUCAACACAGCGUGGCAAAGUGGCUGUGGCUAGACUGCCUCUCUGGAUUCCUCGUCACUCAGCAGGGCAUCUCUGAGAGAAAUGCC

variants of: B1; experiment: self-cleavage, relative activity (ratio to wild type); higher = more cleavage; in vitro, sequencing; the parent is a self-cleaving ribozyme
Decision: self-cleavage >= 1 yields class 1, all other cases yield class 0.

>  <variant spec>
A57C A78G

>  <class name>
class 0

$$$$
>  <variant spec>
G44A A141G

>  <class name>
class 1

$$$$
>  <variant spec>
C18U A43G

>  <class name>
class 1

$$$$
>  <variant spec>
U119A A140G

>  <class name>
class 1

$$$$
>  <variant spec>
U12A U96C

>  <class name>
class 0

$$$$
>  <variant spec>
G83A G144U

>  <class name>
class 1

$$$$
>  <variant spec>
C103U A140G

>  <class name>
class 1

$$$$
>  <variant spec>
U108G U134C

>  <class name>
class 1

$$$$

For this variant, is measured self-cleavage 1 or higher? G44A A50G
class 0

# bool: self-cleavage of U26A A30U >= 1
class 1

Given U5C U73C , state whether its self-cleavage is at least 1.
class 1

Please indicate if the recorded self-cleavage for U100A U112A meets or exceeds 1.
class 0

Is it the case that U15G U96C has self-cleavage reaching or exceeding 1?
class 0

Assess whether reported self-cleavage for A24G C37A sits at 1 or higher.
class 1

Please check the record U29C A136G and state if its self-cleavage is at or above 1.
class 0
